- System: (R)-2,3-butanediol dehydrogenase
- measurement_description: Substrate specificity, oxidation reaction of the enzyme obtained in Example 1 with alcohols
- Type: biochemical, Kluyveromyces lactis
- condition: coenzyme NAD+; oxidation of (R)-1,3-butanediol taken as 100
Please use rule met whenever Relative Activity, Oxidation Reaction is not below 100, and rule not met whenever it is.

{"columns": ["compound", "answer_label"],
 "data": [
  ["CC(C)O", "rule not met"],
  ["OCC(O)CO", "rule not met"],
  ["C[C@@H](O)CO [(R)-1,2-propanediol]", "rule met"],
  ["CCO", "rule not met"],
  ["C[C@@H](O)[C@@H](C)O", "rule met"],
  ["OC[C@H](O)CCl [(S)-3-chloro-1,2-propanediol]", "rule met"]
]}

====

- Tested on: (R)-2,3-butanediol dehydrogenase
- measurement_description: Stereoselectivity, oxidation of alcohol isomers by the enzyme obtained in Example 1
- Format: biochemical, Kluyveromyces lactis
- condition: coenzyme NAD+; higher oxidation activity between the two isomers taken as 100
Relative Activity (stereoselectivity) for assorted compounds
metric_name: Relative Activity (stereoselectivity)

{"columns": ["compound", "assay_target", "quantitative_result"],
 "data": [
  ["C[C@@H](O)CCO [(R)-1,3-butanediol]", "(R)-2,3-butanediol dehydrogenase", 100],
  ["OC[C@H](O)CCl [(S)-3-chloro-1,2-propanediol]", "(R)-2,3-butanediol dehydrogenase", 100],
  ["OC[C@@H](O)CCl [(R)-3-chloro-1,2-propanediol]", "(R)-2,3-butanediol dehydrogenase", 29],
  ["C[C@@H](O)CO [(R)-1,2-propanediol]", "(R)-2,3-butanediol dehydrogenase", 100],
  ["C[C@@H](O)[C@@H](C)O", "(R)-2,3-butanediol dehydrogenase", 100],
  ["C[C@H](O)CCO [(S)-1,3-butanediol]", "(R)-2,3-butanediol dehydrogenase", 35],
  ["C[C@H](O)CO [(S)-1,2-propanediol]", "(R)-2,3-butanediol dehydrogenase", 1],
  ["C[C@H](O)[C@H](C)O", "(R)-2,3-butanediol dehydrogenase", 1]
]}

====

- Test system: (R)-2,3-butanediol dehydrogenase
- measurement_description: Substrate specificity, reduction reaction of the enzyme obtained in Example 1 with ketones
- Type: biochemical, Kluyveromyces lactis
- condition: coenzyme NADH; reduction of 4-hydroxy-2-butanone taken as 100
Entries and their measured Relative Activity, Reduction Reaction follow.

{"columns": ["molecule", "Relative Activity, Reduction Reaction"],
 "data": [
  ["CCC(=O)CC [3-Pentanone]", 100],
  ["CC(=O)c1ccccc1 [Acetophenone]", 36],
  ["CCC(=O)CO [1-Hydroxy-2-butanone]", 12100],
  ["CCC(=O)C(C)=O [2,3-Pentanedione]", 51400],
  ["CCOC(=O)CC(C)=O [Ethyl acetoacetate]", 0],
  ["CC(=O)C(C)=O [2,3-Butanedione]", 46400],
  ["CC(C)=O [Acetone]", 63],
  ["CC(=O)CC(C)=O [2,4-Pentanedione]", 0],
  ["CC(=O)CO [Acetol]", 53600],
  ["O=C(CO)c1ccccc1 [2-Hydroxy-acetophenone]", 360],
  ["CCC(C)=O [2-Butanone]", 31],
  ["CC(=O)CCO [4-Hydroxy-2-butanone]", 100],
  ["CCOC(=O)CC(=O)CCl [4-Chloro-ethyl acetoacetate]", 0],
  ["CC(=O)C(C)O (centres unmarked) [Acetoin]", 101000]
]}
